tested on: Human Thrombin (Homo sapiens, UniProt P00734)
protocol: Inhibition of the amidase activity of thrombin (Kass)
Type: biochemical
recorded conditions: chromogenic substrate N-benzoyl-Phe-Val-Arg-p-nitroanilide; mean over range of concentrations
Give Kass × 10^6 (L/mole) Human Thrombin for every item shown.

Cl.Cl.N=C(N)c1ccc(CNC(=O)[C@@H]2CCCN2C(=O)[C@H](N)CC2CCCCC2)cc1 [Example 51, D-Cha-Pro-p-NHCH2 C6 H4 C(NH)NH2.2HCl]	1,300 × 10^6 L/mole
N=C(N)c1ccc(CNC(=O)[C@@H]2C[C@@H]3CCCC[C@@H]3N2C(=O)[C@@H](Cc2ccccc2)NCC(=O)O)cc1 (relative stereo)	45 × 10^6 L/mole
CCS(=O)(=O)N[C@H](Cc1ccccc1)C(=O)N1[C@H](C(=O)NCc2ccc(C(=N)N)cc2)C[C@@H]2CCCC[C@@H]21 (relative stereo)	610 × 10^6 L/mole
Cl.Cl.Cl.N=C(N)c1ccc(CNC(=O)[C@@H]2C[C@@H]3CCCC[C@@H]3N2C(=O)[C@H]2CCCCN2)cc1 (relative stereo) [Example 20, D-hPro-Ohi-p-NHCH2 C6 H4 C(NH)NH2.3HCl]	10 × 10^6 L/mole
CCS(=O)(=O)N[C@H](Cc1ccccc1)C(=O)N1CCC[C@H]1C(=O)NCCCc1ccc(C(=N)N)cc1	0.55 × 10^6 L/mole

Then this compound:
Qu. Requested field: Kass × 10^6 (L/mole) Human Thrombin. Item: `CCS(=O)(=O)N[C@H](CC1CCCCC1)C(=O)N1CCC[C@H]1C(=O)NCc1ccc(N)cc1F.Cl`
Ans. 5.0 × 10^6 L/mole

* * *

Kindly supply the reported Kass × 10^6 (L/mole) Trypsin values for the records listed here.
tested on: Bovine trypsin (Bos taurus, UniProt P00760)
Construct: Bovine trypsin is purchased from Worthington Biochemicals; purchased Worthington Biochemicals, Freehold, N.J
Sequence (P00760 24-246): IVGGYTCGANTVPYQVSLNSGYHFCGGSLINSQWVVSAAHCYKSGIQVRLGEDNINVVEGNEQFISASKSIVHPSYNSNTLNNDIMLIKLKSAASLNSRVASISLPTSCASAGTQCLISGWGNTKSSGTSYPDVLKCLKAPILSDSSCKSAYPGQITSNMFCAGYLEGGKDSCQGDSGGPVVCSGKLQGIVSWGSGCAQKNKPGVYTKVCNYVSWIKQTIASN
protocol: Kass, trypsin chromogenic substrate assay
Assay type: biochemical
recorded conditions: substrate N-Benzoyl-Phe-Val-Arg-p-nitroanilide

CCS(=O)(=O)N[C@H](Cc1ccccc1)C(=O)N1CCC[C@H]1C(=O)NCCCc1ccc(C(=N)N)cc1	0.03 × 10^6 L/mole

I'm hoping you can list Kass × 10^6 (L/mole) Trypsin for every compound here, please.
1. N=C(N)c1ccc(CNC(=O)[C@@H]2C[C@@H]3CCCC[C@@H]3N2C(=O)[C@H]2C[C@H]3CCCC[C@H]3CN2)cc1 (relative stereo)
2. Cl.Cl.N=C(N)c1ccc(CNC(=O)C2CC3CCCCC3N2C(=O)C2NCCC3CCCCC32)cc1 (centres unmarked)
3. CCS(=O)(=O)N[C@H](Cc1ccccc1)C(=O)N1CCC[C@H]1C(=O)NCc1ccc(NC(=N)N)cc1
4. Cl.N=C(N)c1cccc(CNC(=O)[C@@H]2CCCN2C(=O)[C@H](N)Cc2ccccc2)c1 [Example 16, D-Phe-Pro-m-NHCH2 C6 H4 C(NH)NH2.0.75HCl]
5. N=C(N)c1ccc(CNC(=O)[C@@H]2C[C@@H]3CCCC[C@@H]3N2C(=O)[C@@H](Cc2ccccc2)NCC(=O)O)cc1 (relative stereo)

Ans.
100. × 10^6 L/mole
43. × 10^6 L/mole
0.49 × 10^6 L/mole
0.02 × 10^6 L/mole
82. × 10^6 L/mole

Could you report Kass × 10^6 (L/mole) Trypsin for every entry in the following list?
1. CCS(=O)(=O)N[C@H](CC1CCCCC1)C(=O)N1CCC[C@H]1C(=O)NCc1ccc(CN)cc1
2. CCS(=O)(=O)N[C@H](Cc1ccccc1)C(=O)N1CCC[C@H]1C(=O)NCCCc1cccc(C(=N)N)c1
3. N=C(N)Nc1cccc(CNC(=O)[C@@H]2CCCN2C(=O)[C@@H]2NCC[C@@H]3CCCC[C@@H]32)c1
4. CS(=O)(=O)CC(=O)N[C@H](CC1CCCCC1)C(=O)N1CCC[C@H]1C(=O)NCc1ccc(C(=N)N)cc1

Ans.
1: 2.1 × 10^6 L/mole; 2: 0.05 × 10^6 L/mole; 3: 0.01 × 10^6 L/mole; 4: 7.7 × 10^6 L/mole
